Reported protein stability index values follow for various variants
B1: ZNF263 (parent)
chain: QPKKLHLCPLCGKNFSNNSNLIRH

# Variants of: B1
# EXPERIMENT_SUMMARY: protein stability index of a GFP-peptide fusion (GPS, HEK-293T) (PSI 1-6); higher = more stable;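 note: lentivirally expressed fusions sorted by FACS into six bins by GFP to DsRed ratio, PSI derived from sequencing read proportions per bin multiplied by bin number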
# CONDITIONS: c terminus: a fixed tail appended
Please reply with the value in numeric form only.

These recorded examples may help you get a feel for the data.
L10T ... 2.84
I22Q ... 3.09
Q1L ... 2.4
N17R ... 2.07
L5V ... 3.02

Now for another entry.
Sure, the documented protein stability index for K3V is 2.67
